Value source: patent US20120225909A1

measuredTarget: human β1-adrenergic receptor (Homo sapiens)
Construct: expressed in transfected cells; host or cells: CHO (Chinese hamster ovary) cells, pcDNA3
Sequence (P08588 whole entry): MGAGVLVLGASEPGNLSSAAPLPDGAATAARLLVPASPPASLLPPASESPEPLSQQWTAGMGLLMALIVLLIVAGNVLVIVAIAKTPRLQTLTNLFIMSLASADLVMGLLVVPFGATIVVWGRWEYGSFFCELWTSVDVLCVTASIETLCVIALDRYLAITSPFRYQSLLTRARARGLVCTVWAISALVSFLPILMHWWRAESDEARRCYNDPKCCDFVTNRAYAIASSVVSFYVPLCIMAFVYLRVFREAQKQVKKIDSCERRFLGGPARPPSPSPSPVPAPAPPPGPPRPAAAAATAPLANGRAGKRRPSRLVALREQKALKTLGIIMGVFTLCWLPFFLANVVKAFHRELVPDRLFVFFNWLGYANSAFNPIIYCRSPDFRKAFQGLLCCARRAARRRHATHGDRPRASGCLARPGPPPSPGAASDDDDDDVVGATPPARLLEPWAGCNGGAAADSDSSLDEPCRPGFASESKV
assayMethodText: Test Case 2-B: human β1-adrenergic receptor agonist activity
Type: cell-based
conditionLabel: read-out: β1 receptor I.A.
Assignment: determine reported Emax for the given compounds.
Hi! Could you send only the number? It should be in %, unit omitted.

Problem: So what's the measured Emax for this one? O=S(=O)(Nc1cccc([C@@H](O)CNCCOc2ccc3c(OC(F)F)n[nH]c3c2)c1)C1CC1
Result: 2

Problem: Also Cc1n[nH]c2cc(OCCNC[C@H](O)c3cccc(NS(=O)(=O)c4cn[nH]c4)c3)ccc12 ?
Result: 7

Problem: // next record Cc1n[nH]c2cc(OCCNC[C@H](O)c3cccc(NS(=O)(=O)c4ccccc4N)c3)ccc12
Result: 14

Problem: Could you do the same for COc1n[nH]c2cc(OCCNC[C@H](O)c3cccc(NS(=O)(=O)c4cccc(Cl)c4)c3)ccc12 , please?
Result: 4

Problem: Now consider O=S(=O)(Nc1cccc([C@@H](O)CNCCOc2ccc3c(C4CC4)n[nH]c3c2)c1)C1CC1 .
Result: 6

Problem: And what about the compound Cc1cccc(S(=O)(=O)Nc2cccc([C@@H](O)CNCCOc3ccc4c(C)n[nH]c4c3)c2)c1 ?
Result: 10

Problem: Would you mind doing Cc1n[nH]c2cc(OCCNC[C@H](O)c3cccc(NS(=O)(=O)c4cc(N)ccc4F)c3)ccc12 as well?
Result: 17

Problem: Follow-up item: COc1n[nH]c2cc(OCCNC[C@H](O)c3cccc(NS(=O)(=O)C4CC4)c3)ccc12
Result: 1

Problem: Next: Cc1n[nH]c2cc(OCCNC[C@H](O)c3cccc(NS(=O)(=O)C4CCC4)c3)ccc12
Result: 4

Problem: Similarly, Nc1cccc(S(=O)(=O)Nc2cccc([C@@H](O)CNCCOc3ccc4c(OC(F)F)n[nH]c4c3)c2)c1 ?
Result: 8

Problem: Thanks! And CCc1n[nH]c2cc(OCCNC[C@H](O)c3cccc(NS(=O)(=O)C4CC4)c3)ccc12 ?
Result: -6

Problem: Input CCc1n[nH]c2cc(OCCNC[C@H](O)c3cccc(NS(=O)(=O)c4cccc(N)c4)c3)ccc12
Result: 13

Problem: Also, CC(C)c1n[nH]c2cc(OCCNC[C@H](O)c3cccc(NS(=O)(=O)c4cccc(N)c4)c3)ccc12 please.
Result: 18

Problem: And for COc1n[nH]c2cc(OCCNC[C@H](O)c3cccc(NS(=O)(=O)c4cccc(N)c4)c3)ccc12 ?
Result: 6

Problem: Can you check COc1n[nH]c2cc(OCCNC[C@H](O)c3cccc(NS(=O)(=O)c4cc(N)ccc4F)c3)ccc12 next?
Result: 10

Problem: Next record, please: Cc1n[nH]c2cc(OCCNC[C@H](O)c3cccc(NS(=O)(=O)c4cccc(O)c4)c3)ccc12
Result: 11

###

For each record, write down the corresponding number of experimental animals matching Score 0 (no piloerection).
Tested on: Male C57BL/6 Cr mice
assayMethodText: Test Case 10: mouse piloerection test
Format: in vivo
conditionLabel: 10 mg/kg i.v., n=4, observation time 15 min, Score 0

Problem: API: value(readout=number of experimental animals matching Score 0 (no piloerection), system=Male C57BL/6 Cr mice) for record CCc1n[nH]c2cc(OCCNC[C@H](O)c3cccc(NS(=O)(=O)c4cn[nH]c4)c3)ccc12 [ex149]
Result: 4

Problem: Now give it for Cc1n[nH]c2cc(OCCNC[C@H](O)c3cccc(NS(=O)(=O)c4cc(N)ccc4F)c3)ccc12 [ex61] too.
Result: 4

Problem: Next record, please: Cc1n[nH]c2cc(OCCNC[C@H](O)c3cccc(NS(=O)(=O)c4cnn(C)c4)c3)ccc12 [ex79]
Result: 3
